Target: UniProt Q9Y6E0
Sequence (Q9Y6E0 whole entry, looked up): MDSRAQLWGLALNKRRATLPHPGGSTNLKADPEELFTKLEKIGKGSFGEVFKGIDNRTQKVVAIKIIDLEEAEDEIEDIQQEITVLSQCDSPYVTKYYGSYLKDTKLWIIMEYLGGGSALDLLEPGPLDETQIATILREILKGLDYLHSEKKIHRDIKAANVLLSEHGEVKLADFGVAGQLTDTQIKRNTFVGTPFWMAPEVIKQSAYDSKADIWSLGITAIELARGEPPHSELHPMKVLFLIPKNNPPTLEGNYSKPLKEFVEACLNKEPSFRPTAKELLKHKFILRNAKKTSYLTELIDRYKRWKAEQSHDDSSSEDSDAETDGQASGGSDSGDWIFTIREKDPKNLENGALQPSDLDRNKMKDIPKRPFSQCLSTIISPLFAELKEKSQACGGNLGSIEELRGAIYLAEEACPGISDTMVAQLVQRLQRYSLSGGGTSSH
Test: radiometric filter-binding kinase assay
Settings: compound 0.1 µM
hey, just use 1 (yes) if measured residual activity is less than 90%, otherwise 0 (no)

Observe how each entry below is paired with its result.
CNC(=O)C1[C@H]2O[C@@](C)([C@@H]1N)n1c3ccccc3c3c4c(c5c6ccccc6n2c5c31)C(=O)NC4 (some centres not stated) : 1 (yes)
CN(C)C/C=C/C(=O)Nc1cccc(C(=O)Nc2ccc(Nc3nccc(-c4cccnc4)n3)cc2)c1 : 0 (no)
CN1CCN(CCOc2cc(OC3CCOCC3)c3c(Nc4c(Cl)ccc5c4OCO5)ncnc3c2)CC1 : 0 (no)
CC1=C(CO)C(=O)O[C@@H]([C@@H](C)[C@H]2CC[C@H]3[C@@H]4C[C@H]5O[C@]56[C@@H](O)C=CC(=O)[C@]6(C)C4CC[C@]23C)C1 (some centres not stated) : 0 (no)
CCn1c(-c2nonc2N)nc2cncc(CNC3CCNCC3)c21 : 1 (yes)
COc1cc(O)c2c(c1)[C@H]1OC1C[C@H](O)[C@H](O)C(=O)/C=C\C[C@H](C)OC2=O (some centres not stated) : 0 (no)

Lab note: next molecule to report on.
In plain terms, does Cc1cc(NC(=O)c2cccc(NC(=O)/C=C/CN(C)C)c2)ccc1Nc1nccc(-c2cccnc2)n1 come in under 90% for residual activity?
1 (yes)
